Just for reference, PubChem BioAssay (NCI) is where these values come from.

System: HCT-116 colon
Assay: NCI tumour cell line growth inhibition, 48 h
outcome-measure: TGI (µM)

1. Oc1c(Br)cc(Cl)cc1C(c1cc(Cl)cc(Br)c1O)C(Cl)(Cl)Cl; 7.91
2. CC(=O)O[C@H]1C[C@@H]2[C@@]3(C)CC[C@H]4C[C@@]4(C)[C@@H]3CC[C@@]2(C)C2=CCC3=C(COC3=O)[C@]21C; 43.7
3. C=C(C)c1nc(Oc2ccccc2)nc(Oc2ccccc2)n1; 10.5
4. COC(=O)/C=C1\C(CO[Si](C)(C)C(C)(C)C)OC(n2ccc(=O)[nH]c2=O)C1O (stereo not given); 16.9
5. Nc1nccc(NCC2(CO)CC(CCc3ccccc3)C2)n1 (stereo not given); 23
6. CN(C)c1ccc(/C=N/N=C(\C#N)[S][Sn]([Cl])([c]2ccccc2)[c]2ccccc2)cc1; 2.63
